Some binders, each annotated with its measured relative binding capacity (100-%n, DMSO subtracted).
Target Or Test System: T1, PKC-δ (purified isoform)
T1 construct: also called PKC-delta
T1 sequence (Q05655 whole entry, stated change not applied, canonical isoform): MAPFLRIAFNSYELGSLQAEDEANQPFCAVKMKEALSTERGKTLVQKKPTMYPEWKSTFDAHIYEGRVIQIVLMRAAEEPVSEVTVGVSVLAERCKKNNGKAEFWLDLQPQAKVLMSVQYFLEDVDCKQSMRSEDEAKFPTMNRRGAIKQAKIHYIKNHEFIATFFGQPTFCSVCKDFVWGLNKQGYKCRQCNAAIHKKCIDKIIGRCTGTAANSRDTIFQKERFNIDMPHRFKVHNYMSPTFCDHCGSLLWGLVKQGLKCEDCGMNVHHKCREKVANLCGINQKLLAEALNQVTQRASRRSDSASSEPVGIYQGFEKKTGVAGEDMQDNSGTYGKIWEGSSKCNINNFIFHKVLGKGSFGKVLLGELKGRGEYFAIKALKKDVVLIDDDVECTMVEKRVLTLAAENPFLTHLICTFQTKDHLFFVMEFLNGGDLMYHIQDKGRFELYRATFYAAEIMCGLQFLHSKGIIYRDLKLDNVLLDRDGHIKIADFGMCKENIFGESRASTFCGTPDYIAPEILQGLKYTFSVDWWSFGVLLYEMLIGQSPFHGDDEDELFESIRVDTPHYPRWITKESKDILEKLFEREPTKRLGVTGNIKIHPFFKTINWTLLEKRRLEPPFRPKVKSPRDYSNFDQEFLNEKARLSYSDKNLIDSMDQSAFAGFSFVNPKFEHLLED
Procedure Details: competitive ELISA, coated purified PKC-δ, vs anti-PKC δ (SC-213); PRE 50 µM
Give the quantity in %, number only.

1) ILEDKGGDAQNLIGISI (also called peptide PRE 8) [PRE 8] | 6.96

Incoming: Suppose we examine the binder RRKKGGKDFVVKR (also called peptide PRE 1; peptide recognition element 1) [PRE 1] ; what relative binding capacity (100-%n, DMSO subtracted) value has been reported?
Outgoing: 35.7

Incoming: Same thing, different binder: Ac-RDAQNLI-NH2 (Ac-RDAQNLI-NH2; also called peptide PRE 13) [PRE 13]
Outgoing: 0

Incoming: Same thing, different binder: Ac-KDANQLIGISI-NH2 (also called peptide PRE 6) [PRE 6]
Outgoing: 17.5
